Test system: BaF3
measurement-notes: Antiproliferative activity against wild type mouse BaF3 cells assessed as reduction in cell growth incubated for 2 to 3 days by Bright-Glo luciferase assay
pIC50: −log10 of the molar value.
readout-label: pIC50

- input-smiles: "Cc1cc(Nc2nc(Nc3ccccc3S(=O)(=O)C(C)C)c3cccnc3n2)c(OC(C)C)cc1C1CCNCC1"
  assayed-system: "BaF3"
  pIC50: 5.14
- input-smiles: "Cc1cc(Nc2nc(Nc3ccccc3S(=O)(=O)C(C)C)c3cc[nH]c3n2)c(OC(C)C)cc1C1CCN(C)CC1"
  assayed-system: "BaF3"
  pIC50: 5.47
- input-smiles: "Cc1cc(Nc2nc(Nc3ccccc3S(=O)(=O)C(C)C)c3cc[nH]c3n2)c(OC(C)C)cc1C1CCNCC1"
  assayed-system: "BaF3"
  pIC50: 5.65
- input-smiles: "Cc1cc(Nc2cc(Nc3ccccc3S(=O)(=O)C(C)C)nc3[nH]ccc23)c(OC(C)C)cc1C1CCN(C)CC1"
  assayed-system: "BaF3"
  pIC50: 5.59
- input-smiles: "Cc1cc(Nc2nc(Nc3ccccc3S(=O)(=O)C(C)C)c3c(N)n[nH]c3n2)c(OC(C)C)cc1C1CCN(C)CC1"
  assayed-system: "BaF3"
  pIC50: 5.35

P: Cc1cc(Nc2nc(Nc3ccccc3S(=O)(=O)C(C)C)c3c(C)[nH]nc3n2)c(OC(C)C)cc1C1CCN(C)CC1
Q: Cc1cc(Nc2nc(Nc3ccccc3S(=O)(=O)C(C)C)c3cn[nH]c3n2)c(OC(C)C)cc1C1CCN(C)CC1
[ask] Of the pair P and Q , name the member with the lesser recorded pIC50. Kindly give the label for the entry you pick.
[reply] Q
(Q: 5.29, P: 5.60)

The measured values listed here are drawn from ChEMBL document CHEMBL4715698.
